# growth AUC normalised to DMSO control annotations
- Tested on: Yersinia pseudotuberculosis
- Procedure summary: growth AUC normalised to DMSO control (fraction of control); higher = less growth inhibition, active = hit call of the paper
- Condition summary: 20 µM
Hey, just send me the number, nothing else.

Solved cases (5 shown):
{"Molecule": "COc1ccc(/C=C/C(=O)Nc2ccccc2C(=O)O)cc1OC", "growth AUC normalised to DMSO control": 1.01}
{"Molecule": "CS(=O)(=O)c1ccc([C@@H](O)[C@@H](CO)NC(=O)C(Cl)Cl)cc1", "growth AUC normalised to DMSO control": 0.866}
{"Molecule": "COc1ccc(C2CNC(=O)C2)cc1OC1CCCC1 (centres undefined)", "growth AUC normalised to DMSO control": 0.984}
{"Molecule": "CC1CCc2cc(F)cc3c(=O)c(C(=O)O)cn1c23 (centres undefined)", "growth AUC normalised to DMSO control": 0.0304}
{"Molecule": "O=C1c2ccccc2S(=O)(=O)N1CCCCN1CCN(c2ncccn2)CC1", "growth AUC normalised to DMSO control": 0.998}

Would you kindly look at the next entry?
For the molecule CCCCN(CCCC)CCCOC(=O)c1ccc(N)cc1 , what growth AUC normalised to DMSO control is on record?
1
